Target of assay: T1, mouse active NSP4 (mA) (mouse), Q14B24
T1 chain: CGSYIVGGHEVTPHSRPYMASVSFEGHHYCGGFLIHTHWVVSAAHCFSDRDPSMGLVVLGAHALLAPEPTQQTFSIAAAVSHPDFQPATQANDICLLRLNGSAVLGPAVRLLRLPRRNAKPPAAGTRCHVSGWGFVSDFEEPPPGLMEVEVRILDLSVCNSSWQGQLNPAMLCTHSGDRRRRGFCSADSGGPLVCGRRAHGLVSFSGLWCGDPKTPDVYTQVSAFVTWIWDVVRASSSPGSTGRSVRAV
Assay overview: competition phage ELISA (phage IC50); soluble mA-NSP4 against plate-coated NSP4
Assay context: remark: other sources report otherwise
Items are presented alongside their recorded IC50.
Measurement kind: IC50 (nM)

anti-NSP4 antibody 5-3 (antibody, V domains shown) VH: EVQLVESGGGLVQPGGSLRLSCAASGFTFSGNDISWVRQAPGKGLEWVAGISPYGGSTYYADSVKGRFTISADTSKNTAYLQMNSLRAEDTAVYYCARRVSFYSRHAGMDYWGQGTLVTVSS VL: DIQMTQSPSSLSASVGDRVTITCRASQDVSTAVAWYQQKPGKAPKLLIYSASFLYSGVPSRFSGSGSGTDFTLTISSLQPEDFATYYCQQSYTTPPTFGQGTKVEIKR	319
anti-NSP4 antibody 5-2 (antibody, V domains shown) VH: EVQLVESGGGLVQPGGSLRLSCAASGFTFSNTYISWVRQAPGKGLEWVGFIYPANGATYYADSVKGRFTISADTSKNTAYLQMNSLRAEDTAVYYCARRYRLSFDYWGQGTLVTVSS VL: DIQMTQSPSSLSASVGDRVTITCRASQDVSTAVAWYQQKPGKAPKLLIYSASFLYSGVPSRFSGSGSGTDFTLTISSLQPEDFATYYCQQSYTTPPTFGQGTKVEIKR	25
anti-NSP4 antibody 5-4 (antibody, V domains shown) VH: EVQLVESGGGLVQPGGSLRLSCAASGFTFTSYAISWVRQAPGKGLEWVAGISPSNGYTNYADSVKGRFTISADTSKNTAYLQMNSLRAEDTAVYYCARAGRWTHSDIDYWGQGTLVTVSS VL: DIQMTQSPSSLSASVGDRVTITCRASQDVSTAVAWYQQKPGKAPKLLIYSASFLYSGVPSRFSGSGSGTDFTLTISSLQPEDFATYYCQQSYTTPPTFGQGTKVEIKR	60.5
